Tested on: MDA-MB-231
Protocol text: Antiproliferative activity against human MDA-MB-231 cells
Format: functional, cell-based
Metric name: IC50
Number plus unit, in that order.

Need IC50 of COC(=O)c1cc(NC(=O)Nc2ccc3nnsc3c2)cc(C(=O)OC)c1 , thanks.
5.1 µM

----------
Measured target: Histone-lysine N-methyltransferase NSD2 (Homo sapiens)
Protocol text: Inhibition of NSD2 (unknown origin)
Metric name: pIC50
As a rule, pIC50 stands for the negative log10 of the concentration, concentration in M.

Molecule	Metric name	Readout number
CC(=O)c1ccc(-c2cc(NC(=O)Nc3ccc4nnsc4c3)cc(C(F)(F)F)c2)s1	pIC50	5.14
C=CC(=O)Nc1cc(NC(=O)Nc2ccc3nnsc3c2)cc(C(=O)OC)c1	pIC50	5.09
Cn1nnc2ccc(NC(=O)Nc3cccc([N+](=O)[O-])c3)cc21	pIC50	5.08
N#Cc1cccc(NC(=O)Nc2ccc3nnsc3c2)c1	pIC50	5.12
COC(=O)c1cc(NC(=O)Nc2ccc3nnsc3c2)cc(C(=O)OC)c1	pIC50	5.43

--- query ---
For O=C(Nc1cccc([N+](=O)[O-])c1)Nc1ccc2nnsc2c1 , what is its reported pIC50?
5.32

----------
Measured target: Histone-lysine N-methyltransferase NSD2 (Homo sapiens)
Sequence (O96028 whole entry): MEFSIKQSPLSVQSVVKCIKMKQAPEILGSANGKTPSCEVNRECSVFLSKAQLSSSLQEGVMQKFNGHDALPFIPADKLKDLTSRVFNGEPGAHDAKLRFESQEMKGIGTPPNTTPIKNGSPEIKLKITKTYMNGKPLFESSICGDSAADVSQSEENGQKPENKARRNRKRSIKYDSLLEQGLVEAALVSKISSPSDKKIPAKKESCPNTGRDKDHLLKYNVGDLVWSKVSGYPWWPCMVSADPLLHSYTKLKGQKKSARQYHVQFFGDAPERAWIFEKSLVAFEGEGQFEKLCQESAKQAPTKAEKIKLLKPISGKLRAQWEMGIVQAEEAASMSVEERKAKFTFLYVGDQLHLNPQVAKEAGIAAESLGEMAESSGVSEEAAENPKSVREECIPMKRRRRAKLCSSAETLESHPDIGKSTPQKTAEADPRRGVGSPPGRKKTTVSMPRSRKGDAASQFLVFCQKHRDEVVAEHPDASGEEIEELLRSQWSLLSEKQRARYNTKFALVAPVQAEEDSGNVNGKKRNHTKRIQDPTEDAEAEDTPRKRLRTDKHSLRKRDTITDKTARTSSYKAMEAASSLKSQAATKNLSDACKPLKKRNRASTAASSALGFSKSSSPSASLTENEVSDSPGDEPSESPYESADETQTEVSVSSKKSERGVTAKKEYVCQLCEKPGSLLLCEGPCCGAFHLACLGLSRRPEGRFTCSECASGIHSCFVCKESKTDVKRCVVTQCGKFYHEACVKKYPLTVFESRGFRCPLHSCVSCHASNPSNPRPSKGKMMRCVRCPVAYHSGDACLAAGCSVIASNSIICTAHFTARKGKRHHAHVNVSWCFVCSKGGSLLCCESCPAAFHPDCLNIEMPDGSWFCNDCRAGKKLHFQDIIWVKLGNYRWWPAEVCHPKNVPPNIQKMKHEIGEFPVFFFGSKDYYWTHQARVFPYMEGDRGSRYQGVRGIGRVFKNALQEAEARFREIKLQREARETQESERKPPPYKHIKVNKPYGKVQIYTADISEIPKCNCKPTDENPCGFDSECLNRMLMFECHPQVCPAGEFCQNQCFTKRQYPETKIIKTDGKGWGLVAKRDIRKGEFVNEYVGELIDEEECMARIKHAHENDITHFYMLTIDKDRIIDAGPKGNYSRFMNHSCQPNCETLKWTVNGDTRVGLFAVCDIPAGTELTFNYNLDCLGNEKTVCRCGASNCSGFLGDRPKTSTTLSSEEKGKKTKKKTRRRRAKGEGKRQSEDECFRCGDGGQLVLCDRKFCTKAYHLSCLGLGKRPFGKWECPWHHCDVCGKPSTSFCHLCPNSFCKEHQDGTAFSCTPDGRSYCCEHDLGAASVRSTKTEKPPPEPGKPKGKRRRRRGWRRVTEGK
Metric name: pKd
// returns pKd (minus log10 of molar concentration), number only

Sample O=C1COc2cc(C(=O)N(Cc3cccs3)C3CC3)ccc2N1 — what was its pKd?
6.46

----------
Measured target: Histone-lysine N-methyltransferase NSD2 (Homo sapiens, UniProt O96028)
Protocol text: Inhibition of NSD2 in human CGTH-W-1 cells assessed as reduction in H3K36me2 level incubated for 72 hrs by ELISA
Assay type: cell-based
Metric name: IC50 (nM)
Just the number please, in nM, no unit attached.

Suppose we examine the compound Nc1ncnc2c1ncn2Cc1cc(-c2ccc(F)c(F)c2)ncc1N1CCC[C@](N)(c2ccccn2)C1 ; what IC50 value has been reported?
18

Which value of IC50 has been reported for CNC(=O)[C@@]1(N)CCCN(c2cnc(-c3cccc(F)c3)cc2Cn2cnc3c(N)ncnc32)C1 in the records?
12

So what does the record say about IC50 for CC[C@H](C)C(=O)[C@@]1(N)CCCN(c2cnc(-c3ccc(F)c(F)c3)cc2Cn2cnc3c(N)ncnc32)C1 ?
40

----------
Measured target: Histone-lysine N-methyltransferase NSD2 (Homo sapiens, UniProt O96028)
Protocol text: Inhibition of NSD2 (unknown origin) using H3K36 as substrate
Metric name: pIC50
The scale used: pIC50 is minus the common logarithm of the concentration in molar units.

I have this compound here, O=C(NCCCN(Cc1nc2sc3c(c2c(=O)[nH]1)CCCC3)Cc1nc2sc3c(c2c(=O)[nH]1)CCCC3)c1cc2ccccc2c(=O)o1 , and I need its recorded pIC50.
3.95

----------
Measured target: UniProtKB O96028
Protocol text: Inhibition of NSD2 in human KMS-11-Par cells assessed as reduction in H3K36me2 level incubated for 72 hrs by ELISA
Format: cell-based
Metric name: IC50 (µM)
All answers are understood in µM, so give the number only.

Here is how some compounds turned out for IC50.
Molecule	IC50 [µM]
Nc1ncnc2c1ncn2Cc1cc(-c2ccc(F)c(F)c2)ncc1N1CCC[C@](N)(c2ccccn2)C1	0.041
CC[C@H](C)C(=O)[C@@]1(N)CCCN(c2cnc(-c3ccc(F)c(F)c3)cc2Cn2cnc3c(N)ncnc32)C1	0.034

IC50 lookup needed for CNC(=O)[C@@]1(N)CCCN(c2cnc(-c3cccc(F)c3)cc2Cn2cnc3c(N)ncnc32)C1 , thanks.
0.078

----------
Measured target: Histone-lysine N-methyltransferase NSD2 (Homo sapiens, UniProt O96028)
Sequence (O96028 whole entry): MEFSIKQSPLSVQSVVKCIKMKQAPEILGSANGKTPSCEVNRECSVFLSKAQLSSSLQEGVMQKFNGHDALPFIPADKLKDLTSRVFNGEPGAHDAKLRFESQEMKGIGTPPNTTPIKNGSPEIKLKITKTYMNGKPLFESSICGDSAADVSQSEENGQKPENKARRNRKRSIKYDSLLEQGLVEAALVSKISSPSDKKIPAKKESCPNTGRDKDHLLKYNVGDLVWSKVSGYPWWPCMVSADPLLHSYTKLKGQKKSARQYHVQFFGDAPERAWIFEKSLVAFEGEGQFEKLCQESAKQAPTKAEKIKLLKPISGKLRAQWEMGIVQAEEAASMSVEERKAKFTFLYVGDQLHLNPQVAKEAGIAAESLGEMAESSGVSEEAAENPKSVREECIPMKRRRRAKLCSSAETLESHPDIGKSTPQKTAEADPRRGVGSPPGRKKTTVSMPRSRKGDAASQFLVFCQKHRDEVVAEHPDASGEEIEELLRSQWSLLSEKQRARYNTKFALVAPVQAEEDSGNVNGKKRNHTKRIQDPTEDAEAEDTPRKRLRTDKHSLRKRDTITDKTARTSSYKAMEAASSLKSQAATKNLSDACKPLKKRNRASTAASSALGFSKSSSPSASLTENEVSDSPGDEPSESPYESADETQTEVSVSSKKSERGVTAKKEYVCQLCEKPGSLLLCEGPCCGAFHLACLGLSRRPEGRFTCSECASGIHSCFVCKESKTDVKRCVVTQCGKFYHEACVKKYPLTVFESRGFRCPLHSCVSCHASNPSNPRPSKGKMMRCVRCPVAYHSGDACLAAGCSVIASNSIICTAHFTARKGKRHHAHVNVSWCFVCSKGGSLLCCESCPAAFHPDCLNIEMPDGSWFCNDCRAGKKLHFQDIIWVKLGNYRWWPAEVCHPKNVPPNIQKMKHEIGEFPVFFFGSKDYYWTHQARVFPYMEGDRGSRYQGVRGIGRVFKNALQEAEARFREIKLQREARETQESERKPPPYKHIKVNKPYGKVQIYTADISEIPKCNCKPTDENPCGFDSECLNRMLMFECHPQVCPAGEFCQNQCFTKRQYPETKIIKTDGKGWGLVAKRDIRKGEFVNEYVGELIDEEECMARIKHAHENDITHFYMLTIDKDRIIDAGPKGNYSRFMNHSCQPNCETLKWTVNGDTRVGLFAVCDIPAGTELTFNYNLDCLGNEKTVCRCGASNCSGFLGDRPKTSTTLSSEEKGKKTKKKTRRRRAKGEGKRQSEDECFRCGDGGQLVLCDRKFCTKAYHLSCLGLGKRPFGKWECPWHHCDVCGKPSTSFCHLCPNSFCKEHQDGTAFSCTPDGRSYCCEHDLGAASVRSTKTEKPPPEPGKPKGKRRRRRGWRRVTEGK
Protocol text: Inhibition of MMSET (unknown origin)
pIC50: −log10 of the molar value.
Metric name: pIC50

Please give the measured pIC50 for this molecule: NNc1nc2ccccc2nc1S
> 5.52
